Catalogue of compounds with associated pIC50
Tested on: 993429-296-R-J1-PDC complex spheroid growth, percent test/control;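 further: spheroids exposed to compounds for seven days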
protocol_description: Anticancer human tumor 993429-296-R-J1-PDC patient-derived uterine sarcoma cell line growth inhibition [Asc]
condition_info: curve of first compound; second compound 10 µM
pIC50: −log10 of the molar value.

compound: O=C(c1ccc(F)c(F)c1Nc1ccc(I)cc1F)N1CC(O)([C@@H]2CCCCN2)C1 + Cc1c(S(C)(=O)=O)c(-c2cc(F)cc(N3CCN(c4ccc(NS(=O)(=O)c5ccc(NC(CCN6CCC(C(=O)OCCCP(=O)(O)O)CC6)CSc6ccccc6)c(S(=O)(=O)C(F)(F)F)c5)cc4)CC3)c2)c(-c2ccc(Cl)cc2)n1C(C)C
tested_system: 993429-296-R-J1-PDC complex spheroid growth, percent test/control;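 further: spheroids exposed to compounds for seven days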
result_qualifier: =
pIC50: 7.80

compound: CCN1C(C(=O)NC23CCC(C(=O)O)(CC2)CC3)C(c2cccc(Cl)c2F)C2(C(=O)Nc3cc(Cl)ccc32)C12CCCCC2 (stereo not drawn) + Cc1c(S(C)(=O)=O)c(-c2cc(F)cc(N3CCN(c4ccc(NS(=O)(=O)c5ccc(NC(CCN6CCC(C(=O)OCCCP(=O)(O)O)CC6)CSc6ccccc6)c(S(=O)(=O)C(F)(F)F)c5)cc4)CC3)c2)c(-c2ccc(Cl)cc2)n1C(C)C
tested_system: 993429-296-R-J1-PDC complex spheroid growth, percent test/control;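 further: spheroids exposed to compounds for seven days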
result_qualifier: <
pIC50: 5.52

compound: Cn1ncnc1[C@H]1c2n[nH]c(=O)c3cc(F)cc(c23)N[C@@H]1c1ccc(F)cc1 + Cc1c(S(C)(=O)=O)c(-c2cc(F)cc(N3CCN(c4ccc(NS(=O)(=O)c5ccc(NC(CCN6CCC(C(=O)OCCCP(=O)(O)O)CC6)CSc6ccccc6)c(S(=O)(=O)C(F)(F)F)c5)cc4)CC3)c2)c(-c2ccc(Cl)cc2)n1C(C)C
tested_system: 993429-296-R-J1-PDC complex spheroid growth, percent test/control;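 further: spheroids exposed to compounds for seven days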
result_qualifier: =
pIC50: 8.00

compound: Cc1nc(N2CCC3(CC2)COC(C)C3N)c(CO)nc1Sc1ccnc(N)c1Cl (stereo not drawn) + Cc1c(S(C)(=O)=O)c(-c2cc(F)cc(N3CCN(c4ccc(NS(=O)(=O)c5ccc(NC(CCN6CCC(C(=O)OCCCP(=O)(O)O)CC6)CSc6ccccc6)c(S(=O)(=O)C(F)(F)F)c5)cc4)CC3)c2)c(-c2ccc(Cl)cc2)n1C(C)C
tested_system: 993429-296-R-J1-PDC complex spheroid growth, percent test/control;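 further: spheroids exposed to compounds for seven days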
result_qualifier: =
pIC50: 7.01

compound: CNC(C)C(=O)NC1CN(S(=O)(=O)c2cccc(S(=O)(=O)N3CCC4CCC(C(=O)NC(c5ccccc5)c5ccccc5)N4C(=O)C(NC(=O)C(C)NC)C3)c2)CCC2CCC(C(=O)NC(c3ccccc3)c3ccccc3)N2C1=O (stereo not drawn) + Cc1c(S(C)(=O)=O)c(-c2cc(F)cc(N3CCN(c4ccc(NS(=O)(=O)c5ccc(NC(CCN6CCC(C(=O)OCCCP(=O)(O)O)CC6)CSc6ccccc6)c(S(=O)(=O)C(F)(F)F)c5)cc4)CC3)c2)c(-c2ccc(Cl)cc2)n1C(C)C
tested_system: 993429-296-R-J1-PDC complex spheroid growth, percent test/control;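 further: spheroids exposed to compounds for seven days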
result_qualifier: =
pIC50: 6.05

compound: NC1CCC(NC2CC2c2ccccc2)CC1 (stereo not drawn) + Cc1c(S(C)(=O)=O)c(-c2cc(F)cc(N3CCN(c4ccc(NS(=O)(=O)c5ccc(NC(CCN6CCC(C(=O)OCCCP(=O)(O)O)CC6)CSc6ccccc6)c(S(=O)(=O)C(F)(F)F)c5)cc4)CC3)c2)c(-c2ccc(Cl)cc2)n1C(C)C
tested_system: 993429-296-R-J1-PDC complex spheroid growth, percent test/control;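 further: spheroids exposed to compounds for seven days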
result_qualifier: >
pIC50: 9.50

compound: CCN1CCN(Cc2ccc(Nc3ncc(F)c(-c4cc(F)c5nc(C)n(C(C)C)c5c4)n3)nc2)CC1 + Cc1c(S(C)(=O)=O)c(-c2cc(F)cc(N3CCN(c4ccc(NS(=O)(=O)c5ccc(NC(CCN6CCC(C(=O)OCCCP(=O)(O)O)CC6)CSc6ccccc6)c(S(=O)(=O)C(F)(F)F)c5)cc4)CC3)c2)c(-c2ccc(Cl)cc2)n1C(C)C
tested_system: 993429-296-R-J1-PDC complex spheroid growth, percent test/control;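 further: spheroids exposed to compounds for seven days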
result_qualifier: =
pIC50: 6.33

compound: C#Cc1c(F)ccc2cc(O)cc(-c3ncc4c(N5CC6CCC(C5)N6)nc(OCC56CCCN5CC(F)C6)nc4c3F)c12 (stereo not drawn) + Cc1c(S(C)(=O)=O)c(-c2cc(F)cc(N3CCN(c4ccc(NS(=O)(=O)c5ccc(NC(CCN6CCC(C(=O)OCCCP(=O)(O)O)CC6)CSc6ccccc6)c(S(=O)(=O)C(F)(F)F)c5)cc4)CC3)c2)c(-c2ccc(Cl)cc2)n1C(C)C
tested_system: 993429-296-R-J1-PDC complex spheroid growth, percent test/control;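 further: spheroids exposed to compounds for seven days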
result_qualifier: =
pIC50: 5.56

compound: NC(=O)C(=Cn1cnc(-c2cc(C(F)(F)F)cc(C(F)(F)F)c2)n1)c1cncnc1 + Cc1c(S(C)(=O)=O)c(-c2cc(F)cc(N3CCN(c4ccc(NS(=O)(=O)c5ccc(NC(CCN6CCC(C(=O)OCCCP(=O)(O)O)CC6)CSc6ccccc6)c(S(=O)(=O)C(F)(F)F)c5)cc4)CC3)c2)c(-c2ccc(Cl)cc2)n1C(C)C
tested_system: 993429-296-R-J1-PDC complex spheroid growth, percent test/control;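 further: spheroids exposed to compounds for seven days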
result_qualifier: =
pIC50: 8.03

compound: C=CC(=O)N1CCN(c2nc(=O)n(-c3c(C)ccnc3C(C)C)c3nc(-c4c(O)cccc4F)c(F)cc23)C(C)C1 (stereo not drawn) + Cc1c(S(C)(=O)=O)c(-c2cc(F)cc(N3CCN(c4ccc(NS(=O)(=O)c5ccc(NC(CCN6CCC(C(=O)OCCCP(=O)(O)O)CC6)CSc6ccccc6)c(S(=O)(=O)C(F)(F)F)c5)cc4)CC3)c2)c(-c2ccc(Cl)cc2)n1C(C)C
tested_system: 993429-296-R-J1-PDC complex spheroid growth, percent test/control;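 further: spheroids exposed to compounds for seven days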
result_qualifier: =
pIC50: 5.24

compound: COc1c(OCCCN2CCOCC2)ccc2c3n(c(=NC(=O)c4cnc(N)nc4)nc12)CCN3 + Cc1c(S(C)(=O)=O)c(-c2cc(F)cc(N3CCN(c4ccc(NS(=O)(=O)c5ccc(NC(CCN6CCC(C(=O)OCCCP(=O)(O)O)CC6)CSc6ccccc6)c(S(=O)(=O)C(F)(F)F)c5)cc4)CC3)c2)c(-c2ccc(Cl)cc2)n1C(C)C
tested_system: 993429-296-R-J1-PDC complex spheroid growth, percent test/control;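 further: spheroids exposed to compounds for seven days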
result_qualifier: =
pIC50: 8.00

compound: C=C(F)C(=O)N1CCN(c2nc(OCC3CCCN3C)nc3c2CCN(c2cccc4cccc(Cl)c24)C3)CC1CC#N (stereo not drawn) + Cc1c(S(C)(=O)=O)c(-c2cc(F)cc(N3CCN(c4ccc(NS(=O)(=O)c5ccc(NC(CCN6CCC(C(=O)OCCCP(=O)(O)O)CC6)CSc6ccccc6)c(S(=O)(=O)C(F)(F)F)c5)cc4)CC3)c2)c(-c2ccc(Cl)cc2)n1C(C)C
tested_system: 993429-296-R-J1-PDC complex spheroid growth, percent test/control;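 further: spheroids exposed to compounds for seven days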
result_qualifier: =
pIC50: 6.26

compound: O=C(c1cc(Cc2n[nH]c(=O)c3ccccc23)ccc1F)N1CCN(C(=O)C2CC2)CC1 + Cc1c(S(C)(=O)=O)c(-c2cc(F)cc(N3CCN(c4ccc(NS(=O)(=O)c5ccc(NC(CCN6CCC(C(=O)OCCCP(=O)(O)O)CC6)CSc6ccccc6)c(S(=O)(=O)C(F)(F)F)c5)cc4)CC3)c2)c(-c2ccc(Cl)cc2)n1C(C)C
tested_system: 993429-296-R-J1-PDC complex spheroid growth, percent test/control;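 further: spheroids exposed to compounds for seven days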
result_qualifier: =
pIC50: 5.83
